# Test system: B16-F10
# assayProcedure: Induction of apoptosis in mouse B16F10 cells assessed as late apoptotic cells at 2 X IC50 after 72 hrs by annexin V-FITC/propidium iodide staining-based FACS analysis (reference value: 9.8 +/- 2.2%)
# Assay type: functional

# compound, tgt, Activity
measured = [
    ("CC1(C)CC[C@]2(C(=O)OCc3ccccc3)CC[C@]3(C)C(=CC[C@@H]4[C@@]5(C)C[C@@H](OC(=O)CCCC(=O)O)[C@H](O)C(C)(C)[C@@H]5CC[C@]43C)[C@@H]2C1", "B16-F10", "19.8%"),
    ("CC(=O)O[C@@H]1C[C@]2(C)[C@H]3CC=C4[C@@H]5CC(C)(C)CC[C@]5(C(=O)OCc5ccccc5)CC[C@@]4(C)[C@]3(C)CC[C@H]2C(C)(C)[C@H]1O", "B16-F10", "27.1%"),
    ("CC1(C)CC[C@]2(C(=O)OCc3ccccc3)CC[C@]3(C)C(=CC[C@@H]4[C@@]5(C)CC[C@H](OC(=O)CCC(=O)O)C(C)(C)[C@@H]5CC[C@]43C)[C@@H]2C1", "B16-F10", "17.6%"),
    ("CC1(C)CC[C@]2(C(=O)OCc3ccccc3)CC[C@]3(C)C(=CC[C@@H]4[C@@]5(C)C[C@@H](OC(=O)c6ccccc6C(=O)O)[C@H](O)C(C)(C)[C@@H]5CC[C@]43C)[C@@H]2C1", "B16-F10", "46.2%"),
    ("CC1(C)CC[C@]2(C(=O)OCc3ccccc3)CC[C@]3(C)C(=CC[C@@H]4[C@@]5(C)C[C@@H](O)[C@H](O)C(C)(C)[C@@H]5CC[C@]43C)[C@@H]2C1 [BENZYL MASLINATE]", "B16-F10", "2.2%"),
    ("CC(=O)O[C@H]1CC[C@]2(C)[C@H]3CC=C4[C@@H]5CC(C)(C)CC[C@]5(C(=O)O)CC[C@@]4(C)[C@]3(C)CC[C@H]2C1(C)C", "B16-F10", "33.4%"),
    ("CC1(C)CC[C@]2(C(=O)O)CC[C@]3(C)C(=CC[C@@H]4[C@@]5(C)CC[C@H](O)C(C)(C)[C@@H]5CC[C@]43C)[C@@H]2C1", "B16-F10", "12.4%"),
    ("CC1(C)CC[C@]2(C(=O)O)CC[C@]3(C)C(=CC[C@@H]4[C@@]5(C)C[C@@H](O)[C@H](O)C(C)(C)[C@@H]5CC[C@]43C)[C@@H]2C1", "B16-F10", "21%"),
    ("CCC(=O)O[C@H]1CC[C@]2(C)[C@H]3CC=C4[C@@H]5CC(C)(C)CC[C@]5(C(=O)O)CC[C@@]4(C)[C@]3(C)CC[C@H]2C1(C)C", "B16-F10", "16.5%"),
    ("CC1(C)CC[C@]2(C(=O)OCc3ccccc3)CC[C@]3(C)C(=CC[C@@H]4[C@@]5(C)CC[C@H](OC(=O)CCCC(=O)O)C(C)(C)[C@@H]5CC[C@]43C)[C@@H]2C1", "B16-F10", "24.6%"),
    ("CC1(C)CC[C@]2(C(=O)OCc3ccccc3)CC[C@]3(C)C(=CC[C@@H]4[C@@]5(C)CC[C@H](OC(=O)c6ccccc6C(=O)O)C(C)(C)[C@@H]5CC[C@]43C)[C@@H]2C1", "B16-F10", "28.5%"),
    ("CC(=O)O[C@@H]1C[C@]2(C)[C@H]3CC=C4[C@@H]5CC(C)(C)CC[C@]5(C(=O)O)CC[C@@]4(C)[C@]3(C)CC[C@H]2C(C)(C)[C@H]1OC(C)=O", "B16-F10", "59.3%"),
    ("CCCC(=O)O[C@@H]1C[C@]2(C)[C@H]3CC=C4[C@@H]5CC(C)(C)CC[C@]5(C(=O)O)CC[C@@]4(C)[C@]3(C)CC[C@H]2C(C)(C)[C@H]1O", "B16-F10", "30%"),
    ("CC(C)(CC(=O)O)CC(=O)O[C@@H]1C[C@]2(C)[C@H]3CC=C4[C@@H]5CC(C)(C)CC[C@]5(C(=O)OCc5ccccc5)CC[C@@]4(C)[C@]3(C)CC[C@H]2C(C)(C)[C@H]1O", "B16-F10", "65.3%"),
    ("CC(C)(CC(=O)O)CC(=O)O[C@H]1CC[C@]2(C)[C@H]3CC=C4[C@@H]5CC(C)(C)CC[C@]5(C(=O)OCc5ccccc5)CC[C@@]4(C)[C@]3(C)CC[C@H]2C1(C)C", "B16-F10", "36.1%"),
    ("CCCCCC(=O)O[C@@H]1C[C@]2(C)[C@H]3CC=C4[C@@H]5CC(C)(C)CC[C@]5(C(=O)O)CC[C@@]4(C)[C@]3(C)CC[C@H]2C(C)(C)[C@H]1O", "B16-F10", "17.5%"),
    ("CC1(C)CC[C@]2(C(=O)OCc3ccccc3)CC[C@]3(C)C(=CC[C@@H]4[C@@]5(C)CC[C@H](O)C(C)(C)[C@@H]5CC[C@]43C)[C@@H]2C1", "B16-F10", "18.6%"),
    ("CC1(C)CC[C@]2(C(=O)O)CC[C@]3(C)C(=CC[C@@H]4[C@@]5(C)CC[C@H](OC(=O)c6ccccc6)C(C)(C)[C@@H]5CC[C@]43C)[C@@H]2C1", "B16-F10", "50.5%"),
]

* * *

# Tested on: B16-F10
# assayProcedure: Induction of apoptosis in mouse B16F10 cells assessed as early apoptotic cells at 2 X IC50 after 72 hrs by annexin V-FITC/propidium iodide staining-based FACS analysis (reference value: 3.9 +/- 0.4%)
# Format: functional

# compoundString, Activity / %
rows = [
    ("CC1(C)CC[C@]2(C(=O)O)CC[C@]3(C)C(=CC[C@@H]4[C@@]5(C)C[C@@H](O)[C@H](O)C(C)(C)[C@@H]5CC[C@]43C)[C@@H]2C1", 68.8),
    ("CC1(C)CC[C@]2(C(=O)O)CC[C@]3(C)C(=CC[C@@H]4[C@@]5(C)CC[C@H](OC(=O)c6ccccc6)C(C)(C)[C@@H]5CC[C@]43C)[C@@H]2C1", 9.5),
    ("CC(=O)O[C@H]1CC[C@]2(C)[C@H]3CC=C4[C@@H]5CC(C)(C)CC[C@]5(C(=O)O)CC[C@@]4(C)[C@]3(C)CC[C@H]2C1(C)C", 14.6),
]

* * *

# Tested on: B16-F10
# assayProcedure: Induction of apoptosis in mouse B16F10 cells assessed as early apoptotic cells at 2 X IC50 after 72 hrs by annexin V-FITC/propidium iodide staining-based FACS analysis (reference value: 3.9 +/- 0.4%)
# Format: functional
recordedEndpoint: Activity (%)

# compound, unitInfo, measuredNumber
rows = [
    ("CC1(C)CC[C@]2(C(=O)OCc3ccccc3)CC[C@]3(C)C(=CC[C@@H]4[C@@]5(C)CC[C@H](O)C(C)(C)[C@@H]5CC[C@]43C)[C@@H]2C1", "%", 23),
    ("CC(C)(CC(=O)O)CC(=O)O[C@@H]1C[C@]2(C)[C@H]3CC=C4[C@@H]5CC(C)(C)CC[C@]5(C(=O)OCc5ccccc5)CC[C@@]4(C)[C@]3(C)CC[C@H]2C(C)(C)[C@H]1O", "%", 26.9),
    ("CC1(C)CC[C@]2(C(=O)OCc3ccccc3)CC[C@]3(C)C(=CC[C@@H]4[C@@]5(C)CC[C@H](OC(=O)c6ccccc6C(=O)O)C(C)(C)[C@@H]5CC[C@]43C)[C@@H]2C1", "%", 66.9),
    ("CC1(C)CC[C@]2(C(=O)OCc3ccccc3)CC[C@]3(C)C(=CC[C@@H]4[C@@]5(C)C[C@@H](O)[C@H](O)C(C)(C)[C@@H]5CC[C@]43C)[C@@H]2C1 [BENZYL MASLINATE]", "%", 86.2),
    ("CC(=O)O[C@@H]1C[C@]2(C)[C@H]3CC=C4[C@@H]5CC(C)(C)CC[C@]5(C(=O)OCc5ccccc5)CC[C@@]4(C)[C@]3(C)CC[C@H]2C(C)(C)[C@H]1O", "%", 71.3),
]

* * *

# System: B16-F10
# assayProcedure: Induction of apoptosis in mouse B16F10 cells assessed as total apoptotic cells at 2 X IC50 after 72 hrs by annexin V-FITC/propidium iodide staining-based FACS analysis (reference value: 13.7 +/- 2.7%)
# Format: functional
Doc: threshold 80% (exclusive). Items with Activity beneath it return true (1); others return false (0).

# compound, className
measured = [
    ("CC1(C)CC[C@]2(C(=O)OCc3ccccc3)CC[C@]3(C)C(=CC[C@@H]4[C@@]5(C)CC[C@H](OC(=O)c6ccccc6C(=O)O)C(C)(C)[C@@H]5CC[C@]43C)[C@@H]2C1", "false (0)"),
    ("CCC(=O)O[C@H]1CC[C@]2(C)[C@H]3CC=C4[C@@H]5CC(C)(C)CC[C@]5(C(=O)O)CC[C@@]4(C)[C@]3(C)CC[C@H]2C1(C)C", "true (1)"),
    ("CC1(C)CC[C@]2(C(=O)OCc3ccccc3)CC[C@]3(C)C(=CC[C@@H]4[C@@]5(C)CC[C@H](OC(=O)CCC(=O)O)C(C)(C)[C@@H]5CC[C@]43C)[C@@H]2C1", "false (0)"),
    ("CC1(C)CC[C@]2(C(=O)OCc3ccccc3)CC[C@]3(C)C(=CC[C@@H]4[C@@]5(C)CC[C@H](O)C(C)(C)[C@@H]5CC[C@]43C)[C@@H]2C1", "true (1)"),
    ("CC1(C)CC[C@]2(C(=O)O)CC[C@]3(C)C(=CC[C@@H]4[C@@]5(C)CC[C@H](OC(=O)c6ccccc6)C(C)(C)[C@@H]5CC[C@]43C)[C@@H]2C1", "true (1)"),
    ("CC(C)(CC(=O)O)CC(=O)O[C@@H]1C[C@]2(C)[C@H]3CC=C4[C@@H]5CC(C)(C)CC[C@]5(C(=O)OCc5ccccc5)CC[C@@]4(C)[C@]3(C)CC[C@H]2C(C)(C)[C@H]1O", "false (0)"),
    ("CC(=O)O[C@@H]1C[C@]2(C)[C@H]3CC=C4[C@@H]5CC(C)(C)CC[C@]5(C(=O)O)CC[C@@]4(C)[C@]3(C)CC[C@H]2C(C)(C)[C@H]1OC(C)=O", "false (0)"),
    ("CC1(C)CC[C@]2(C(=O)O)CC[C@]3(C)C(=CC[C@@H]4[C@@]5(C)CC[C@H](O)C(C)(C)[C@@H]5CC[C@]43C)[C@@H]2C1 [OLEANOLIC_ACID]", "true (1)"),
    ("CC1(C)CC[C@]2(C(=O)OCc3ccccc3)CC[C@]3(C)C(=CC[C@@H]4[C@@]5(C)C[C@@H](O)[C@H](O)C(C)(C)[C@@H]5CC[C@]43C)[C@@H]2C1 [BENZYL MASLINATE]", "false (0)"),
    ("CC(=O)O[C@H]1CC[C@]2(C)[C@H]3CC=C4[C@@H]5CC(C)(C)CC[C@]5(C(=O)O)CC[C@@]4(C)[C@]3(C)CC[C@H]2C1(C)C [ACETYL OLEANOLIC ACID]", "true (1)"),
]
